target: Coleoptera luciferase (Photinus pyralis, UniProt P08659); construct: purchased Toyo Ink Manufacturing Co., Ltd. PGL100; test: luciferin/luciferase luminescent reaction with an added sulfur reagent, measured on a luminometer; assay type: biochemical; conditions: final concentration 33.3 mM; initial 200 seconds; 100 ng/mL luciferase
Sequence (P08659 whole entry): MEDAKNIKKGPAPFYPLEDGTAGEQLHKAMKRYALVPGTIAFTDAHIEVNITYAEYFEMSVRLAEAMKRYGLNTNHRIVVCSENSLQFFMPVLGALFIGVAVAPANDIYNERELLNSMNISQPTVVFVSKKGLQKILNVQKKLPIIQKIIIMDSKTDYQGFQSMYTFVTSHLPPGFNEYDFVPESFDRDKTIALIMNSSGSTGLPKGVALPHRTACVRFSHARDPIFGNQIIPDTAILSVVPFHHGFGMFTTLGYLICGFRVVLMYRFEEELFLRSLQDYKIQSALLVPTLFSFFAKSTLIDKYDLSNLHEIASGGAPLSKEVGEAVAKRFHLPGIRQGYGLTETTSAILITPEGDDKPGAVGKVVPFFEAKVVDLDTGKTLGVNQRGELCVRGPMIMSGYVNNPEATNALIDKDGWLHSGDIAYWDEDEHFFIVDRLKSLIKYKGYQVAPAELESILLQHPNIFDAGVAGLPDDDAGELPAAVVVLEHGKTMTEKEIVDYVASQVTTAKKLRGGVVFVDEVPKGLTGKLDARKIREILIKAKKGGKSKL
Reported max RLU (maximum quantity of light emitted) by item:

Recorded max RLU (maximum quantity of light emitted), per entry:
CCOC(=S)[S-].[K+] [Potassium xanthogenate, potassium xanthogenate] = 24,210 RLU/sec
O[C@H](CS)[C@H](O)CS (racemic) [DTT, dithiothreitol, reference compound] = 3,434,180 RLU/sec
Sc1nc2ccccc2s1 = 2,603,090 RLU/sec

*Q* // fetch max RLU (maximum quantity of light emitted) given entry CCN(CC)C(=S)[S-].[Na+] [Sodium diethyldithiocarbamate, sodium diethyldithiocarbamate]
*A* 1,261,630 RLU/sec

----------
target: Coleoptera luciferase (Photinus pyralis); construct: purchased Toyo Ink Manufacturing Co., Ltd. PGL100; assay: luciferin/luciferase luminescent reaction with an added sulfur reagent, measured on a luminometer; assay type: biochemical; settings: final concentration 3.3 mM; initial 200 seconds; 100 ng/mL luciferase
MEASURED METRIC: max RLU (maximum quantity of light emitted)

// worked examples, max RLU (maximum quantity of light emitted) included
O[C@H](CS)[C@H](O)CS (racemic) [DTT, dithiothreitol, reference compound] = 3,221,070 RLU/sec
Sc1nc2ccccc2s1 = 3,410,350 RLU/sec
CCN(CC)C(=S)[S-].[Na+] [Sodium diethyldithiocarbamate, sodium diethyldithiocarbamate] = 3,141,880 RLU/sec

Now look at this entry.
*Q* Identify the reported max RLU (maximum quantity of light emitted) for the following entry. CCOC(=S)[S-].[K+] [Potassium xanthogenate, potassium xanthogenate]
*A* 473,070 RLU/sec

----------
biological target: Coleoptera luciferase (Photinus pyralis, UniProt P08659); construct: purchased Toyo Ink Manufacturing Co., Ltd. PGL100; experiment: luciferin/luciferase luminescent reaction with an added sulfur reagent, measured on a luminometer; assay type: biochemical; details: final concentration 33.3 mM; 100 ng/mL luciferase
Below: a set of entries, each annotated with reported RLU/200 (integrated quantity of light emitted for 200 seconds).

CCOC(=S)[S-].[K+] [Potassium xanthogenate, potassium xanthogenate] = 4,519,292 RLU/200 sec
Sc1nc2ccccc2s1 = 421,084,568 RLU/200 sec
CCN(CC)C(=S)[S-].[Na+] [Sodium diethyldithiocarbamate, sodium diethyldithiocarbamate] = 246,535,408 RLU/200 sec

*Q* Identify measured RLU/200 (integrated quantity of light emitted for 200 seconds) corresponding to O[C@H](CS)[C@H](O)CS (racemic) [DTT, dithiothreitol, reference compound]
*A* 667,250,048 RLU/200 sec

----------
Quick list: RLU/200 (integrated quantity of light emitted for 200 seconds) per entry.
biological target: Coleoptera luciferase (Photinus pyralis, UniProt P08659); construct: purchased Toyo Ink Manufacturing Co., Ltd. PGL100; assay: luciferin/luciferase luminescent reaction with an added sulfur reagent, measured on a luminometer; format: biochemical; conditions: final concentration 3.3 mM; 100 ng/mL luciferase

Consider the reported RLU/200 (integrated quantity of light emitted for 200 seconds) for these molecules:
Sc1nc2ccccc2s1 = 622,578,816 RLU/200 sec
CCN(CC)C(=S)[S-].[Na+] [Sodium diethyldithiocarbamate, sodium diethyldithiocarbamate] = 611,260,800 RLU/200 sec
CCOC(=S)[S-].[K+] [Potassium xanthogenate, potassium xanthogenate] = 92,549,720 RLU/200 sec

*Q* Using known records, supply RLU/200 (integrated quantity of light emitted for 200 seconds) for O[C@H](CS)[C@H](O)CS (racemic) [DTT, dithiothreitol, reference compound]
*A* 579,940,160 RLU/200 sec
